# ASSAY SUMMARY: chemical genetic growth profiling, strain panel (AID 1159580);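 further: tested at 20 µM; growth read once vehicle control cultures reached saturation at 30 °C; 1 = growth at the plate median or of vehicle wells; lower values mean less growth of the strain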
# TEST PARAMETERS: S. cerevisiae deletion strains, growth OD, locus YNL183C, strain NPR1, stronger effect = lower value
About 2,000 (36%) of roughly 5,500 compounds were called active. Not shown: some 18% with an inconclusive outcome. Some of the results follow.
PARAMETER MEASURED: normalized growth
Answers are plain numbers.

Example entries and their recorded answers appear below.
[
  {
    "COMPOUND": "CC(C)CCCC(C)C1CCC2C3CC(=O)[C@H]4C[C@@H](O)CC[C@]4(C)C3CC[C@]12C (stereo not given in full)",
    "ENDPOINT VALUE": 1
  },
  {
    "COMPOUND": "CC(C)CCCC(C)C1CCC2C3CC[C@H]4C[C@H](O)CC[C@]4(C)C3CC[C@]12C (stereo not given in full)",
    "ENDPOINT VALUE": 0.916
  },
  {
    "COMPOUND": "CN1CCN(C(=O)OC2c3nccnc3C(=O)N2c2ccc(Cl)cn2)CC1 (stereo not given)",
    "ENDPOINT VALUE": 0.957
  },
  {
    "COMPOUND": "CC(=O)N[C@@H](Cc1c[nH]c2ccccc12)C(N)=O",
    "ENDPOINT VALUE": 0.914
  },
  {
    "COMPOUND": "CO[C@H]1CC(O[C@@H]2/C(C)=C/C[C@@H]3C[C@@H](C[C@]4(CC[C@H](C)[C@@H](C5CCCCC5)O4)O3)OC(=O)[C@@H]3C=C(C)/C(=N\\O)[C@H]4OC/C(=C\\C=C\\[C@@H]2C)[C@]43O)O[C@@H](C)C1O (stereo not given in full)",
    "ENDPOINT VALUE": 0.512
  },
  {
    "COMPOUND": "O=P1(NCCCl)OCCCN1CCCl (stereo not given)",
    "ENDPOINT VALUE": 0.93
  },
  {
    "COMPOUND": "CC(C)CCCC(C)[C@H]1CCC2C3CC=C4CC(=O)CC[C@]4(C)C3CC[C@@]21C (stereo not given in full)",
    "ENDPOINT VALUE": 0.937
  },
  {
    "COMPOUND": "CCCc1cc(=O)[nH]c(=S)[nH]1",
    "ENDPOINT VALUE": 0.966
  }
]

# batch size: 2; output normalized growth per entry
1. CC(C)CCCC(C)C1CCC2C3=CC[C@H]4C[C@@H](O)CC[C@]4(C)C3CC[C@@]21C (stereo not given in full)
2. CS(=O)(=O)c1ccc([C@@H](O)[C@@H](CO)NC(=O)C(Cl)Cl)cc1

Completion:
0.939
0.959

---

# ASSAY SUMMARY: chemical genetic growth profiling, strain panel (AID 1159580);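 further: tested at 20 µM; growth read once vehicle control cultures reached saturation at 30 °C; 1 = growth at the plate median or of vehicle wells; lower values mean less growth of the strain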
# TEST PARAMETERS: S. cerevisiae deletion strains, growth OD, locus YGL240W, strain doc1, stronger effect = lower value
Hit rate of the full screen: of about 5,500 compounds, about 2,000 (36%) were called active. Another 18% or so got no clear call; they are omitted. The list shows a part of the results.
Please respond with 1 (yes) when measured normalized growth is strictly beneath 1, and with 0 (no) in all other cases.

Here's what some known entries look like.
[
  {
    "MOLECULE": "CC(C)c1ccc2c(c1)CCC1C(C)(C(N)=O)CCCC21C (stereo unspecified)",
    "CAT": "1 (yes)"
  },
  {
    "MOLECULE": "CC(=O)c1ccc(O)c(CC=C(C)C)c1",
    "CAT": "1 (yes)"
  },
  {
    "MOLECULE": "Nc1ccc(C(=O)O)cc1",
    "CAT": "0 (no)"
  }
]

Prompt: Please determine if `O=C(OCc1ccccc1)c1ccccc1` is below 1 in terms of normalized growth.
Completion: 1 (yes)

Prompt: Now the same for `Cc1cc(=O)oc2cc(O)c(O)cc12`
Completion: 1 (yes)

Prompt: Now the same for `CC(=O)c1cc(CC=C(C)C)c(O)c(CC=C(C)C)c1`
Completion: 0 (no)

Prompt: Now the same for `COc1cc(C(C)=O)cc(OC)c1O`
Completion: 0 (no)

Prompt: Now the same for `Cc1scc2c1N(C(=O)CN1CCN(C)CC1)c1ccccc1NC2=O`
Completion: 1 (yes)

---

# ASSAY SUMMARY: chemical genetic growth profiling, strain panel (AID 1159580);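 further: tested at 20 µM; growth read once vehicle control cultures reached saturation at 30 °C; 1 = growth at the plate median or of vehicle wells; lower values mean less growth of the strain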
# TEST PARAMETERS: S. cerevisiae deletion strains, growth OD, locus YJL164C, strain tpk1, stronger effect = lower value
In all, about 5,500 compounds went through this assay and about 2,000 (36%) were called active. Inconclusive results (about 18%) are left out. The list shows a part of the results.
PARAMETER MEASURED: normalized growth
One number for each entry.

[
  {
    "MOLECULE": "O=C(CC(=O)c1ccccc1)c1ccccc1",
    "ENDPOINT VALUE": 0.154
  }
]

# batch size: 7; output normalized growth per entry
1. O=C(O)c1cc(O)c2c(c1)[C@@H]([C@H]1c3cc(C(=O)O)cc(O)c3C(=O)c3c(O[C@H]4O[C@H](CO)[C@@H](O)[C@H](O)[C@H]4O)cccc31)c1cccc(O[C@H]3O[C@H](CO)[C@@H](O)[C@H](O)[C@H]3O)c1C2=O
2. NS(=O)(=O)c1cc2c(cc1Cl)NC(CSCc1ccccc1)=NS2(=O)=O
3. CC1=CC(=O)c2ccccc2C1=O
4. C[C@H](CCC(=O)O)[C@H]1CCC2C3C(=O)CC4CC(=O)CC[C@]4(C)C3CC(=O)[C@@]21C (stereo partly drawn)
5. NCC(=O)c1ccccc1
6. CC(CCc1ccccc1)NCC(O)c1ccc(O)c(C(N)=O)c1 (stereo not drawn)
7. CC(=O)O[C@H]1CC[C@@]2(C)C(C[C@@H](OC(C)=O)[C@@]3(C)C4=CC(=O)O[C@@H](c5ccoc5)[C@]4(C)CCC23)C1(C)C (stereo partly drawn)

Completion:
1. 1
2. 0.977
3. 0.934
4. 1.01
5. 0.996
6. 0.996
7. 1.01

# batch size: 7; output normalized growth per entry
1. CC(=O)O[C@@H]1CC2C(C)(C)[C@H](O)C=C[C@]2(C)C2CC[C@]3(C)C(=CC(=O)O[C@H]3c3ccoc3)[C@@]21C (stereo partly drawn)
2. CC(=O)N[C@@H](Cc1c[nH]c2ccccc12)C(N)=O
3. NC1=NCCN1CC(=O)O
4. CC(C)CCCC(C)C1CCC2C3CC(=O)[C@H]4C[C@@H](O)CC[C@]4(C)C3CC[C@]12C (stereo partly drawn)
5. CC(CCC(=O)O)[C@H]1CCC2C3CC[C@@H]4C[C@H](O)CC[C@]4(C)C3C=C[C@@]21C (stereo partly drawn)
6. CCC(C)[C@H]1O[C@]2(C=C[C@@H]1C)C[C@@H]1C[C@@H](C/C=C(\C)[C@@H](OC3C[C@H](OC)C(O[C@H]4C[C@H](OC)[C@@H](O)[C@H](C)O4)[C@H](C)O3)[C@@H](C)/C=C/C=C3\CO[C@@H]4[C@H](O)C(C)=C[C@@H](C(=O)O1)[C@]34O)O2 (stereo partly drawn)
7. NCC(N)C(=O)c1ccccc1 (stereo not drawn)

Completion:
[0.991, 1.02, 0.986, 1.01, 0.899, 0.795, 1.03]

# batch size: 3; output normalized growth per entry
1. Cc1nc(N)cc(C[n+]2csc(CCO)c2C)n1
2. O=C(OCc1ccccc1)c1ccccc1
3. CC(=O)O[C@@H]1C=C[C@@]2(C)C(C[C@@H](OC(C)=O)[C@@]3(C)C4=CC(=O)O[C@@H](c5ccoc5)[C@]4(C)CCC23)C1(C)C (stereo partly drawn)

Completion:
1. 0.985
2. 0.922
3. 1

---

Provide the recorded normalized growth for the entries that follow.
# ASSAY SUMMARY: chemical genetic growth profiling, strain panel (AID 1159580);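 further: tested at 20 µM; growth read once vehicle control cultures reached saturation at 30 °C; 1 = growth at the plate median or of vehicle wells; lower values mean less growth of the strain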
# TEST PARAMETERS: S. cerevisiae deletion strains, growth OD, locus YDR054C, strain cdc34, stronger effect = lower value
The campaign covered roughly 5,500 compounds. About 2,000 (36%) were called active. About 18% were inconclusive and are not listed. The list shows a part of the results.
Numbers only.

[
  {
    "COMPOUND SMILES": "Cc1onc(-c2c(Cl)cccc2Cl)c1C(=O)O/N=C(/N)Cc1ccc(C(C)(C)C)cc1",
    "ENDPOINT VALUE": 0.989
  }
]

# batch size: 5; output normalized growth per entry
1. O=C(Nc1cccc(Cl)c1)O/N=C1\CCCc2occc21
2. Cc1cc(/C(N)=N\OC(=O)C(C)(C)C)cc(/C(N)=N\OC(=O)C(C)(C)C)c1
3. CC(C)(C)c1cc(C(=O)Nc2ccc3c(c2)OCO3)n(Cc2ccc(F)cc2)n1
4. Cc1nn(-c2cccc(Cl)c2)c2oc(=O)cc(C(F)(F)F)c12
5. Cc1onc(-c2c(F)cccc2Cl)c1/C(N)=N\OC(=O)c1ccc(C(C)(C)C)cc1

Completion:
[0.927, 0.985, 0.993, 0.973, 1]

Just for reference, PubChem BioAssay AID1159580 is where these values come from.
